biological target: HIV-1 JR-CSF Env T320A (HIV-1 isolate JR-CSF) (UniProt P20871); test: cell-based or functional assay
Field: Fold IC50 increase relative to wild-type. Provide a value for each of the binders that follow.
Give a bare numeral; the unit fold is implied.

Asked: Please report the recorded Fold IC50 increase relative to wild-type for PGT-127 (antibody, V domains shown) VH: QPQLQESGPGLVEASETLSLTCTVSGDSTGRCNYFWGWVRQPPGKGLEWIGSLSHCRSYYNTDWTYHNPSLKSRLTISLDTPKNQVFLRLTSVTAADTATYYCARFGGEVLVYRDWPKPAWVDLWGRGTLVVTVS VL: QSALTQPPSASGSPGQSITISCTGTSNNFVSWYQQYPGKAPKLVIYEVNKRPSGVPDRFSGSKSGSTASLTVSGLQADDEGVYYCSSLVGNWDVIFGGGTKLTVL .
Given back: 1.8

Asked: Please report the recorded Fold IC50 increase relative to wild-type for PGT-130 (antibody, V domains shown) VH: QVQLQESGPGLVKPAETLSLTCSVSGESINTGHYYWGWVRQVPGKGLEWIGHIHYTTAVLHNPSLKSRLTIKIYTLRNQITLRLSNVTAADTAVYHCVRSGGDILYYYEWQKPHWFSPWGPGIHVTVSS VL: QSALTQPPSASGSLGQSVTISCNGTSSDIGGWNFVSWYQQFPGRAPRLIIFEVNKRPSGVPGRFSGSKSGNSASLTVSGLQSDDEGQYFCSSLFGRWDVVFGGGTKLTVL .
Given back: 0.9

Where do these numbers come from? They come from patent US20200024330A1.
